Cited source for all entries: PubChem BioAssay (NCATS)

assay: Cellular Toxicity (caspase-3) Hek293 (AID 664); conditions: HEK293 caspase-3 activation, DMSO = 0%, 100 µM tamoxifen = 100%; at 92.2 µM (top of the series);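 note: cells exposed to compound for 16 h at 37 °C before readout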
Records with an inconclusive call do not appear.
Below is a list of entries, each paired with its recorded caspase-3 activation value.
Unit % implied. Number only.

These recorded examples may help you get a feel for the data.
{"molecule": "CC(C)(C)OCC1CO1 (stereo not given)", "units-symbol": "%", "caspase-3 activation": 2.04}
{"molecule": "CC(=O)c1cc(C)oc1C", "units-symbol": "%", "caspase-3 activation": 0.799}
{"molecule": "NS(=O)(=O)O", "units-symbol": "%", "caspase-3 activation": 1.35}

Recorded caspase-3 activation for CCCCCCC(=O)O , please?
0.189

Recorded caspase-3 activation for Cc1cccc([N+](=O)[O-])c1C(=O)O , please?
2.11

Recorded caspase-3 activation for CC(C)Cc1nccs1 , please?
2.01

Recorded caspase-3 activation for COC(=O)CS , please?
-1.02

Recorded caspase-3 activation for COC(=O)c1ccccc1 , please?
-1.66

Recorded caspase-3 activation for CCOc1ccccc1N , please?
-1.95

Recorded caspase-3 activation for O=C(O)c1ccccc1[N+](=O)[O-] , please?
2.82

----------
molecular target: Peroxisome proliferator-activated receptor alpha (Homo sapiens); assay: qHTS assay for small molecule agonists of the peroxisome proliferator-activated receptor alpha (PPARalpha) signaling pathway (AID 651778); conditions: PathHunter PPARalpha complementation, chemiluminescence, 6 h; hits give high values; note: % of control where 0% means no effect
Below is a list of entries, each paired with its recorded max response value.
Unit % implied. Number only.

Recorded max response for O=Cc1ccc(C(=O)O)cc1 , please?
-5.11

Recorded max response for [O-]/[N+](=N\O)c1ccccc1 , please?
-0.0477

Recorded max response for CC(=O)c1ccc([N+](=O)[O-])cc1 , please?
-2.88

Recorded max response for Nc1ccccc1S(=O)(=O)O , please?
-3.61

Recorded max response for CCCCCCCN , please?
-4.9

Recorded max response for CC(=O)OCCC(C)C , please?
-9.14

----------
test: qHTS assay for small molecule activators of the nuclear factor-kappa B (NF-kB) signaling pathway (AID 651749); conditions: NF-kB-bla ME-180 cells, beta-lactamase FRET ratio, 16 h; hits give high values; note: % of control where 0% means no effect
Results filed as inconclusive are left out.
Below is a list of entries, each paired with its recorded activation value.
Unit % implied. Number only.

{"molecule": "CCC1CO1 (stereo not given)", "activation, %": -0.443}
{"molecule": "C[C@@H]1CC2(OC[C@]3(C)O[C@H]23)O[C@H]2C[C@@]3(C)[C@@H]4CC[C@H]5C(C)(C)C(O[C@@H]6OC[C@@H](O)[C@H](O)[C@H]6O)CC[C@@]56C[C@@]46CC[C@]3(C)[C@@H]12 (stereo not given in full)", "activation, %": -1.67}
{"molecule": "Nc1ccc(F)cc1F", "activation, %": -1.13}
{"molecule": "O=C(O)CCSSCCC(=O)O", "activation, %": -1.14}

Recorded activation for ICCc1ccccc1 , please?
-1.75

----------
assay: Cell Viability - LYMP2-001 (AID 921); details: LYMP2-001 lymphoblastoid cell viability; series mostly up to 92.2 µM;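 note: cells exposed to compound for 24 h at 37 °C; nearly all actives have a fitted effect of over 70% in size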
Inconclusive results are not listed. The source made the active and inactive calls. Calls come from the whole dose curve; as a rule, active = well fitted cell-killing curve with a large enough effect; inconclusive = small, poorly fitted or top-dose-only effect; inactive = no such curve, though single readings can be large or run the other way.
Lab note: assign the record to one of Y (active), N (inactive)

The following compounds have reported results that may help.
{"compound": "O=C(Cl)c1ccccc1[N+](=O)[O-]", "group": "N"}
{"compound": "COC(=O)CS", "group": "N"}
{"compound": "O=C(O)c1cc(Cl)cc(Cl)c1", "group": "N"}
{"compound": "Nc1nc2ccccc2[nH]1", "group": "N"}
{"compound": "CC(C)(O)C(=O)O", "group": "N"}
{"compound": "CC(=O)Nc1ccccc1C", "group": "N"}
{"compound": "CCCCC/C=C/C=C/C=O", "group": "Y"}
{"compound": "O=[N+]([O-])c1c(Cl)cc(Cl)cc1Cl", "group": "N"}

Please turn your attention to the following entry.
Tell me the recorded outcome of this test for CCCCN(CCO)CCCC .
N

----------
molecular target: Nuclear receptor ROR-gamma (Homo sapiens) (UniProt P51449); experiment: qHTS assay for small molecule antagonists of the retinoid-related orphan receptor gamma (ROR-gamma) signaling pathway (AID 651802); settings: ROR-gamma antagonist cell reporter assay; series mostly up to 92.2 µM; note: nearly all actives have a fitted effect of over 60% in size
Sequence (P51449 whole entry, looked up): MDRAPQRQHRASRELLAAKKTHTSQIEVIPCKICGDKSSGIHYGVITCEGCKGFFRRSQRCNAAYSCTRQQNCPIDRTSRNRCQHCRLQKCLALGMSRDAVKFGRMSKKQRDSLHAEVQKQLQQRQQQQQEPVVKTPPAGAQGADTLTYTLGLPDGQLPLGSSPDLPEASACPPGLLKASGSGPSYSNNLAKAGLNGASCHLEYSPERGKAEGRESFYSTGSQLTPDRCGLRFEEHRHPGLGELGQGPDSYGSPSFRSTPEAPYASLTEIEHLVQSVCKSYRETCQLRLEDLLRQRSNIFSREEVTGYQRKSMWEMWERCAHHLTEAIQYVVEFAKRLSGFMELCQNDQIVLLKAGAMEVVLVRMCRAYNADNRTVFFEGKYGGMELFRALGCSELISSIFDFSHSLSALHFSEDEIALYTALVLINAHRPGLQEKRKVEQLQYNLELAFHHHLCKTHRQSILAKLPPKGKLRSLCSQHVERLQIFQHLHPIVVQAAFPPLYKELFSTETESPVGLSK
Inconclusive results are not listed. Active and inactive are the calls of the source. Calls come from the whole dose curve; as a rule, active = well fitted inhibition curve with a large enough effect; inconclusive = small, poorly fitted or top-dose-only effect; inactive = no such curve, though single readings can be large or run the other way.
Lab note: assign the record to one of active, inactive

{"molecule": "Cc1c(N)cccc1[N+](=O)[O-]", "group": "inactive"}
{"molecule": "C=CCCC", "group": "inactive"}
{"molecule": "C/C=C1\\CC2C=CC1C2 (centres undefined)", "group": "inactive"}

Tell me the recorded outcome of this test for NS(=O)(=O)O .
inactive

Tell me the recorded outcome of this test for Cc1ccc(C#N)cc1 .
inactive

Tell me the recorded outcome of this test for Cc1ccc([N+](=O)[O-])c(N)c1 .
inactive

Tell me the recorded outcome of this test for CCCCC/C=C/C=C/C=O .
active

Tell me the recorded outcome of this test for Nc1cccc(N)c1 .
inactive

Tell me the recorded outcome of this test for O=C(Cl)c1c(Cl)cccc1Cl .
inactive

Tell me the recorded outcome of this test for Cc1cccc([N+](=O)[O-])c1C(=O)O .
inactive

Tell me the recorded outcome of this test for CCCCCO .
inactive

Tell me the recorded outcome of this test for CC(O)COC(C)(C)C (centres undefined) .
inactive

Tell me the recorded outcome of this test for CC(=O)c1nccs1 .
inactive

Tell me the recorded outcome of this test for CCC(C)(C)C(=O)O .
inactive

----------
Below is a list of entries, each paired with its recorded activation value.
biological target: Glucocorticoid receptor (Homo sapiens); test: qHTS assay for small molecule agonists of glucocorticoid receptor signaling (AID 588532); details: HeLa MMTV-bla, beta-lactamase ratio, agonist, 18 h; hits give high values; percent of dexamethasone control, DMSO zero;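 note: 100% = dexamethasone at 0.1 µM and 0% = DMSO only wells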
Records with an inconclusive call do not appear.
Unit % implied. Number only.

{"compound": "NC(N)=S", "activation, %": 1.8}
{"compound": "CCc1ccccc1O", "activation, %": 4.35}
{"compound": "CCN(CC)c1cccc(O)c1", "activation, %": -1.18}
{"compound": "C=CCOC(=O)COCCC(C)C", "activation, %": -3.64}
{"compound": "O=C(O)/C=C/C(=O)O", "activation, %": 27.1}
{"compound": "Clc1cc(Cl)cc(Cl)c1", "activation, %": 5.2}

Recorded activation for O=C(O)c1cc(Cl)cc(Cl)c1 , please?
-5.57

Recorded activation for CCC1CO1 (stereo not given) , please?
-3

Recorded activation for COc1ccc(N=[N+]([O-])c2ccc(OC)cc2)cc1 , please?
9.01

Recorded activation for CC(=O)Nc1ccc(C)cc1 , please?
8.72

Recorded activation for CCCC(Cl)CCCC(Cl)CCC(Cl)CCC(Cl)CCC(Cl)CCCC(Cl)CCC (stereo not given) , please?
3.07

----------
test: qHTS assay for small molecule activators of the p53 signaling pathway (AID 651743); settings: HCT-116 p53RE-bla, beta-lactamase FRET ratio, 16 h; hits give high values; note: % of control where 0% means no effect
Results filed as inconclusive are left out.
Below is a list of entries, each paired with its recorded activation value.
Unit % implied. Number only.

Recorded activation for Cc1cccc([N+](=O)[O-])c1C(=O)O , please?
-3.44

----------
Below is a list of entries, each paired with its recorded max response value.
molecular target: Retinoic acid receptor RXR-alpha (Homo sapiens); assay: qHTS assay for small molecule antagonists of retinoid X receptor alpha signaling (AID 588546); conditions: HEK293T RXRa-UAS-bla, beta-lactamase ratio, antagonist mode;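 note: cells stimulated with 9-cis-retinoic acid as agonist; % is set by controls: 0 for no effect and ±100 for the full control effect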
Results filed as inconclusive are left out.
Unit % implied. Number only.

These recorded examples may help you get a feel for the data.
{"molecule": "C/C=C1\\CC2C=CC1C2 (stereo not drawn)", "number": 6.71}
{"molecule": "Cc1ccc(S(=O)(=O)NC2CCCCC2)cc1", "number": 11.2}

Give the reported max response for O=P(O)(OCc1ccccc1)OCc1ccccc1 (system: Retinoic acid receptor RXR-alpha (Homo sapiens)).
-5.97

----------
Below is a list of entries, each paired with its recorded activation value.
experiment: qHTS assay for environmental chemicals that activate the Aryl hydrocarbon Receptor (AhR) signaling pathway (AID 651777); conditions: 1A2-DRE human hepatoma cells, luciferase, 24 h; hits give high values; note: % of control where 0% means no effect; nearly all actives have a fitted effect of over 15% in size
Records with an inconclusive call do not appear.
Unit % implied. Number only.

These recorded examples may help you get a feel for the data.
{"compound": "Cc1ccccc1Br", "test-readout": "activation", "units-symbol": "%", "number": -0.782}
{"compound": "C=CCCCCCCC=C", "test-readout": "activation", "units-symbol": "%", "number": 0.475}
{"compound": "CC(=O)c1ccc([N+](=O)[O-])cc1", "test-readout": "activation", "units-symbol": "%", "number": 0.202}
{"compound": "Cc1ccc2ccccc2c1[N+](=O)[O-]", "test-readout": "activation", "units-symbol": "%", "number": 1.24}

Recorded activation for C=Cc1ccccc1C=C , please?
-0.496

Recorded activation for C=C(C)C1CC=C(C)C(OC(C)=O)C1 (centres undefined) , please?
0.261

Recorded activation for CC(=O)OCCC(C)C , please?
0.441

Recorded activation for O=C(O)c1ccc(CO)o1 , please?
-0.734

Recorded activation for CCC(C)=O , please?
-0.131

Recorded activation for Cc1ccc(C)c([N+](=O)[O-])c1 , please?
0.781

Recorded activation for BrC/C=C/CBr , please?
0.145

Recorded activation for CC(=O)OCc1ccco1 , please?
1.48

Recorded activation for CCN(CC)c1cccc(O)c1 , please?
4.44

Recorded activation for CCNc1cc(O)ccc1C , please?
6.45

Recorded activation for Cc1ccc(C)cc1 , please?
0.01

Recorded activation for Cc1cccc(C)c1O , please?
0.0984

Recorded activation for Cc1cccc(C(=O)O)c1 , please?
0.807

Recorded activation for CC(=O)Nc1ccc(N)cc1 , please?
-0.109

Recorded activation for CC(=O)c1cccc([N+](=O)[O-])c1 , please?
1.48
